The origin of these recorded values is patent US20250136722A1.

Molecular target: human alpha1 nicotinic acetylcholine (nACh) receptor (Homo sapiens, UniProt P02708+Q07001)
Sequence (P02708 21-457): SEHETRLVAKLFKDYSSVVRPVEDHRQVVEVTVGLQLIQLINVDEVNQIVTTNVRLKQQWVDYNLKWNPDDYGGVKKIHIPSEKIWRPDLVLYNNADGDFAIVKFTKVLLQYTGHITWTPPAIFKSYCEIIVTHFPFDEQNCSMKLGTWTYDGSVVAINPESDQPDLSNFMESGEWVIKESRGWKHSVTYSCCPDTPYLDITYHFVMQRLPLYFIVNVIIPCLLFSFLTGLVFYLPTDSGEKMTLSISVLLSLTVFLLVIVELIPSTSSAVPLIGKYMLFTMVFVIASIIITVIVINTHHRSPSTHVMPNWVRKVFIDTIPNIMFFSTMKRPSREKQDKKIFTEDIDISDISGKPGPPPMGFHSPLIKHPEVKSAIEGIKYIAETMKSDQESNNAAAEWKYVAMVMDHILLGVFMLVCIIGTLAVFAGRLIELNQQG
Sequence (P11230 24-501 partner): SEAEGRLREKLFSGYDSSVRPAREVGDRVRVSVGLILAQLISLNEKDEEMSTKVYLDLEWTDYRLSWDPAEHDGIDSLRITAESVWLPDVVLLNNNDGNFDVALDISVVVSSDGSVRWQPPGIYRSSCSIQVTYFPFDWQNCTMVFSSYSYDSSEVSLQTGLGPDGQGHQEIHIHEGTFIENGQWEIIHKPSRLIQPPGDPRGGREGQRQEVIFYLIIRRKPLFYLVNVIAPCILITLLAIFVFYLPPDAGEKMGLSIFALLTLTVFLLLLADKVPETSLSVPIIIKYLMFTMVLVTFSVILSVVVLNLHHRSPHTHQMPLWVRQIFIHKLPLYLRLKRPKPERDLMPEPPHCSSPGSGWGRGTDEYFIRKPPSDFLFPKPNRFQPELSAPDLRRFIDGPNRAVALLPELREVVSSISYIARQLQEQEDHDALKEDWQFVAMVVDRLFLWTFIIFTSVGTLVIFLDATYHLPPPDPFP
Sequence (Q07001 22-517): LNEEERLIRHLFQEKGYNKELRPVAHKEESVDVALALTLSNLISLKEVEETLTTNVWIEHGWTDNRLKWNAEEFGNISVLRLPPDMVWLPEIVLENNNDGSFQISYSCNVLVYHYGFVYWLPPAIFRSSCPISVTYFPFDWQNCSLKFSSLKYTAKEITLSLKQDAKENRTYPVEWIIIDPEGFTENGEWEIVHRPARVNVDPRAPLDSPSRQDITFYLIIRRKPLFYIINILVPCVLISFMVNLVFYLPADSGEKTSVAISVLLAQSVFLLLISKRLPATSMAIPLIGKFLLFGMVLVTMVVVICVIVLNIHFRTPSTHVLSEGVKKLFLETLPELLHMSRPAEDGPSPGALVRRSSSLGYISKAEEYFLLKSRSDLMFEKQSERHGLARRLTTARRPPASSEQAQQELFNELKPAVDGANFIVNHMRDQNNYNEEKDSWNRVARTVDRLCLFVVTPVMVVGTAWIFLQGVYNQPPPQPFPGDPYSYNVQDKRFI
Assay: Nicotinic acetylcholine receptor antagonism assay, IONFlux automated patch clamp (Example 203)
Format: cell-based
Details: maximum percentage antagonism at maximum concentration tested 10 μM; read-out: Maximum Response (%)
Source text: Cells expressing human alpha1 nicotinic acetylcholine (nACh) receptor (nAChR) were washed and dissociated using Trypsin containing buffer. Cells were then washed and seeded at a density of 3-5 million cells/mL and allowed to grow for 3 days. […] The receptor was then stimulated via addition of acetylcholine (ACh) and activation of the receptor was monitored via the IONFlux automated patch clamp system. […]
Assign Condition met whenever Emax at 10 µM does not fall below 20%; assign Condition not met whenever it does.

{"columns": ["Structure Smiles String", "Cat"],
 "data": [
  ["CC(C)N(C)[C@@H]1CC[C@H](N2CC[C@H](Nc3ncnc4ccc(C(F)(F)F)cc34)C2=O)[C@H](NC(=O)[C@H]2CC[C@@H](CC(=O)CCCOC[C@H]3CC[C@H](COCCNC(=O)[C@H]4CC(=O)N(C)[C@@H]4c4cccnc4)CC3)CC2)C1", "Condition not met"],
  ["CC(C)N(C)[C@@H]1CC[C@H](N2CC[C@H](Nc3ncnc4ccc(C(F)(F)F)cc34)C2=O)[C@H](NC(=O)CCOCCN2CCC3(CCC(C(=O)NCCNC(=O)[C@H]4CC(=O)N(C)[C@@H]4c4cccnc4)CC3)CC2)C1", "Condition met"],
  ["CN1C(=O)C[C@H](C(=O)NCCOCCOCCOCCOCCOCCC(=O)N[C@@H]2C[C@H](NC(C)(C)C)CC[C@@H]2N2CC[C@H](Nc3ncnc4ccc(C(F)(F)F)cc34)C2=O)[C@H]1c1cccnc1", "Condition not met"],
  ["CC(C)N(C)[C@@H]1CC[C@H](N2CC[C@H](Nc3ncnc4ccc(C(F)(F)F)cc34)C2=O)[C@H](NC(=O)CCOCCNC(=O)[C@H]2CC[C@@H](NC(=O)COCCNC(=O)[C@H]3CC(=O)N(C)[C@@H]3c3cccnc3)CC2)C1", "Condition not met"],
  ["CC(C)N(C)[C@@H]1CC[C@H](N2CC[C@H](Nc3ncnc4ccc(C(F)(F)F)cc34)C2=O)[C@H](NC(=O)[C@H]2CC[C@@H](NC(=O)CCCOCCCCOCCNC(=O)[C@H]3CC(=O)N(C)[C@@H]3c3cccnc3)CC2)C1", "Condition met"]
]}
